Biological target: MMP-1 (Homo sapiens)
Construct: made in house; host or cells: MMP-1-transfected HT-1080 cells (spent media)
Sequence (P03956 100-469): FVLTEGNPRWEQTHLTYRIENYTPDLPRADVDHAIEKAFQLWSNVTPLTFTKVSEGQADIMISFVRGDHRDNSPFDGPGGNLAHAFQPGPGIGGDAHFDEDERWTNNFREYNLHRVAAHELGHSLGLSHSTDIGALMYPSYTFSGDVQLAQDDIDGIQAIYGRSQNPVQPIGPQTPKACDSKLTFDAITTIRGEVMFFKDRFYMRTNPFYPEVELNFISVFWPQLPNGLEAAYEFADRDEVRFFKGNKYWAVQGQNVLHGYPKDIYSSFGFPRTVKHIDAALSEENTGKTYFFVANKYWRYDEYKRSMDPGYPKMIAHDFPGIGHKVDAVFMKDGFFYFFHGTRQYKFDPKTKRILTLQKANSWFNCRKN
Assay: MMP-1 inhibition (in vitro Ki)
Format: biochemical
Details: Table 8; read-out: MMP-1 Ki
pKi: −log10 of the molar value.
Experimental readout: pKi

Request: Could you tell me which pKi is on file for CCCCCCOC1CCN(S(=O)(=O)C2(C(=O)NO)CCOCC2)CC1 [Example A36] ?
Response: < 5.00

Request: Could you tell me which pKi is on file for CC(C)(C)CCOC1CCN(S(=O)(=O)C2(C(=O)NO)CCOCC2)CC1 [Example A36E] ?
Response: < 5.00

Request: Could you tell me which pKi is on file for COCCC(C(=O)NO)S(=O)(=O)N1CCC(c2ccc(CCC(F)(F)C(F)(F)F)cc2)CC1 (stereo not drawn) [Example A66] ?
Response: < 5.00

----------
target: MMP-2 (Homo sapiens, UniProt P08253); construct: made in house; host or cells: MMP-2-transfected p2AHT2 cells; experiment: In vitro MMP inhibition, Ki determination (fluorogenic substrate II); type: biochemical; conditions: value outside parentheses; read-out: MMP-2 Ki
Sequence (P08253 110-660): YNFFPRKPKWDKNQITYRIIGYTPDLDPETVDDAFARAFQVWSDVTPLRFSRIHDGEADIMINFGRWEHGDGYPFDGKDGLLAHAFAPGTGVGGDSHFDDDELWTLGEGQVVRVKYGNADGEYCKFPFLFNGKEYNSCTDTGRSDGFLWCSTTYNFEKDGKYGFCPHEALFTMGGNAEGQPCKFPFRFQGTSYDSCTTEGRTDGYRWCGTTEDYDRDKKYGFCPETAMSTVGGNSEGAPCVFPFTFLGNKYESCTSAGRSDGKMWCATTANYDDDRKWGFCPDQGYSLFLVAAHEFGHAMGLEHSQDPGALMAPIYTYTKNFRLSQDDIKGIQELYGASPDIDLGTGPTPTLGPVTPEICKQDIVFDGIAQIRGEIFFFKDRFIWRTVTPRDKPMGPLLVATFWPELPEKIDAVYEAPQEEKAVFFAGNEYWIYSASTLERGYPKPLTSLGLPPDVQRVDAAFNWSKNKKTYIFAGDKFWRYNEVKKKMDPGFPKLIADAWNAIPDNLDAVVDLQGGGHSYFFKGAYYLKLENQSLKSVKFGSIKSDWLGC
pKi: −log10 of the molar value.
Experimental readout: pKi

| Item smiles | Target of assay | Test result |
| --- | --- | --- |
| CCc1ccc(C2CCN(S(=O)(=O)C3(C(=O)NO)CCN(CCOC)CC3)CC2)s1 | MMP-2 (Homo sapiens, UniProt P08253) | 8.04 |

(a) CCCCOc1ccc(N2CCN(S(=O)(=O)C3(C(=O)NO)CCN(C(=O)CN)CC3)CC2)cc1
(b) CCCCOc1ccc(N2CCN(S(=O)(=O)C3(C(=O)NO)CCN(C(=O)COC)CC3)CC2)cc1
Request: Short answer wanted: higher pKi, a or b ? // output: label of the selected item
Response: b

----------
molecular target: MMP-2 (Homo sapiens, UniProt P08253); construct: made in house; host or cells: MMP-2-transfected p2AHT2 cells; experiment: In vitro MMP inhibition, Ki determination (fluorogenic substrate II); type: biochemical; conditions: value outside parentheses; read-out: MMP-2 Ki
Experimental readout: Ki (nM)

| Item smiles | Ki [nM] |
| --- | --- |
| O=C(NO)C1(S(=O)(=O)N2CCC(COCC(F)(F)C(F)(F)C(F)(F)C(F)F)CC2)CCOCC1 | 24.8 |

(1) CCCCOc1ccc(N2CCN(S(=O)(=O)C3(C(=O)NO)CCNCC3)CC2)cc1F
(2) O=C(NO)C1(S(=O)(=O)N2CCC(c3ccc(OC(F)(F)C(F)F)cc3)CC2)CCOCC1
Request: Short answer wanted: higher Ki, 1 or 2 ? // output: label of the selected item
Response: 1
(1: 5.17 nM, 2: 0.427 nM)

----------
molecular target: MMP-14 (Homo sapiens); construct: The catalytic domain enzyme was expressed in E. coli inclusion bodies, solubilized in urea; made in house; experiment: In vitro MMP inhibition, Ki determination (fluorogenic substrate II); type: biochemical; settings: value outside parentheses; read-out: MMP-14 Ki
pKi: −log10 of the molar value.
Parameter: pKi. Scope: all listed entries.

Example cases with answers are listed next.
| Compound | pKi |
| --- | --- |
| O=C(NO)C1(S(=O)(=O)N2CCN(c3cnn(-c4ccccc4)c(=O)c3Cl)CC2)CCOCC1 [Example 329] | < 5.00 |
| CCCCOc1ccc(N2CCN(S(=O)(=O)C3(C(=O)NO)CCN(c4ccc(C(F)(F)F)cn4)CC3)CC2)cc1 [Example 257] | < 5.00 |
| CS(=O)(=O)c1ccc(N2CCN(S(=O)(=O)C3(C(=O)NO)CCOCC3)CC2)cc1 [Example 300] | < 5.00 |
| O=C(NO)C1(S(=O)(=O)N2CCC(c3ccc(OCC(F)(F)C(F)(F)F)cc3)CC2)CCOCC1 [Example 330] | < 5.00 |

Request: Could you tell me which pKi is on file for CCC(F)(F)CCc1ccc(C2CCN(S(=O)(=O)C3(C(=O)NO)CCOCC3)CC2)cn1 [Example 411] ?
Response: < 5.00

Request: Could you tell me which pKi is on file for CCCCOc1ccc(N2CCN(S(=O)(=O)C3(C(=O)NO)CCN(c4ccc(Cl)cc4)CC3)CC2)cc1 [Example 251] ?
Response: < 5.00

Request: Could you tell me which pKi is on file for O=C(NO)C1(S(=O)(=O)N2CCN(c3ccc(SC(F)(F)F)cc3)CC2)CCS(=O)(=O)CC1 [Example 258] ?
Response: 5.31

Request: Could you tell me which pKi is on file for O=C(NO)C1(S(=O)(=O)N2CCC(c3ccc(CCCC(F)(F)F)cc3)CC2)CCN(C2CC2)CC1 [Example 351] ?
Response: 5.32

Request: Could you tell me which pKi is on file for CCCCOc1ccc(N2CCN(S(=O)(=O)C3(C(=O)NO)CCN(C)CC3)CC2)cc1 [Example 280] ?
Response: 5.14

----------
Biological target: MMP-13 (Homo sapiens, UniProt P45452)
Construct: made in house; host or cells: baculovirus / insect cells
Test: In vitro MMP inhibition, Ki determination (fluorogenic substrate II)
Type: biochemical
Conditions: value not in parenthesis; read-out: MMP-13 Ki
Procedure: Several hydroxamic acids and salts thereof were analyzed in in vitro assays to determine their ability to inhibit the MMP cleavage of peptide substrates. […] and IC50 constants were calculated from the assayed hydroxamic acid-MMP interactions. […] The assays from which the Ki determinations were made were performed as follows. […] In the absence of MMP inhibitory activity, substrate II was cleaved at the Gly-Leu bond resulting in an increase of relative fluorescence. […]
pKi: −log10 of the molar value.
Experimental readout: pKi

| Compound | pKi |
| --- | --- |
| O=C(NO)C1(S(=O)(=O)N2CCN(c3cnc(CCC(F)(F)C(F)(F)F)cn3)CC2)CCOCC1 [Example 210] | 9.16 |

(P) COCCN1CCC(C(=O)NO)(S(=O)(=O)N2CCN(c3ccccn3)CC2)CC1 [Example 176]
(Q) CCCc1cnc(N2CCN(S(=O)(=O)C3(C(=O)NO)CCN(CCOC)CC3)CC2)nc1 [Example 178]
Request: For P and Q , which recorded pKi is lower? // output: label of the selected item
Response: Q

----------
target: MMP-9 (Homo sapiens, UniProt P14780); construct: made in house; host or cells: MMP-9-transfected HT1080 cells (spent media); experiment: In vitro MMP inhibition, Ki determination (fluorogenic substrate II); assay type: biochemical; conditions: value outside parentheses
Sequence (P14780 107-707 limits assumed): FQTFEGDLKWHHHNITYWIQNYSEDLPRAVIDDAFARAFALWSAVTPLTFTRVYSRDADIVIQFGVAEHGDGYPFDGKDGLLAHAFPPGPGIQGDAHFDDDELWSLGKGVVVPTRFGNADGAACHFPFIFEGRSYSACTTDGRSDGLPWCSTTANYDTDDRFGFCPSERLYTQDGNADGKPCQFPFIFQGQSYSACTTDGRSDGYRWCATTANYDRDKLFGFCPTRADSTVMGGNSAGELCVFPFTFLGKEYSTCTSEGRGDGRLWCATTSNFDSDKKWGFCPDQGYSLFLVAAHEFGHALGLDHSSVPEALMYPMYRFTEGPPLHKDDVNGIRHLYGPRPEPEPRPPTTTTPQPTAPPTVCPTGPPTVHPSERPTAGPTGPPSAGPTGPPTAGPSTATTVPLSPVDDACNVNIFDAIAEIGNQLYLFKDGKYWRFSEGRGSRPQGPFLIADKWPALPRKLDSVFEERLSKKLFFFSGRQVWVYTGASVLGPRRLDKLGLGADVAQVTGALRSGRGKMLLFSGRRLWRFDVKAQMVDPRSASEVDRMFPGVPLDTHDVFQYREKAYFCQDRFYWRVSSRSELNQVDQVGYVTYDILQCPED
pKi: −log10 of the molar value.
Experimental readout: pKi

Example cases with answers are listed next.
| Item smiles | pKi |
| --- | --- |
| O=C(NO)C1(S(=O)(=O)N2CCC(COCc3ccc(OC(F)(F)F)cc3)CC2)CCOCC1 | 8.64 |
| CCCCOc1ccc(N2CCN(S(=O)(=O)C3(C(=O)NO)CCN(Cc4ccccc4)CC3)CC2)cc1F | 8.01 |
| O=C(NO)C1(S(=O)(=O)N2CCN(c3ccc(OCC4CC4)c(F)c3)CC2)CCOCC1 | 8.98 |

(P) CCCCCc1ccc(N2CCN(S(=O)(=O)C3(C(=O)NO)CCN(C4CC4)CC3)CC2)cc1
(Q) O=C(NO)C1(S(=O)(=O)N2CCN(c3ncc(-c4cccnc4)s3)CC2)CCOCC1
Request: Short answer wanted: higher pKi, P or Q ? // output: label of the selected item
Response: P

(A) COCCN1CCC(C(=O)NO)(S(=O)(=O)N2CCN(c3ncccn3)CC2)CC1
(B) CCc1ccc(-c2cnc(N3CCN(S(=O)(=O)C4(C(=O)NO)CCOCC4)CC3)s2)cc1
Request: For A and B , which recorded pKi is lower? // output: label of the selected item
Response: A

(I) CCCCOc1ccc(N2CCN(S(=O)(=O)C3(C(=O)NO)CCN(CC4CC4)CC3)CC2)cc1
(II) CCCCOc1ccc(N2CCN(S(=O)(=O)C3(C(=O)NO)CCN(c4ccc(C)cc4)CC3)CC2)cc1F
(III) O=C(NO)C1(S(=O)(=O)N2CCC(c3ccc(CCC(F)(F)C(F)(F)F)cn3)CC2)CCOCC1
(IV) CCCCOc1ccc(N2CCN(S(=O)(=O)C3(C(=O)NO)CCN(C(N)=O)CC3)CC2)cc1
(V) CS(=O)(=O)c1ccc(N2CCN(S(=O)(=O)C3(C(=O)NO)CCOCC3)CC2)cc1
Request: Ascending sort, pKi. The response must list the labels following the requested ordering.
Response: V, II, I, IV, III
(V: 6.85, II: 7.32, I: 8.52, IV: 8.80, III: 9.65)

(1) O=C(NO)C1(S(=O)(=O)N2CCC(c3ccc(-c4cccc(F)c4)cn3)CC2)CCOCC1
(2) CCCCc1ccc(C2CCN(S(=O)(=O)C3(C(=O)NO)CCN(CC)CC3)CC2)nc1
Request: For 1 and 2 , which recorded pKi is lower? // output: label of the selected item
Response: 1
(1: 8.39, 2: 9.41)

(A) CCc1ccc(-c2ccc(C3CCN(S(=O)(=O)C4(C(=O)NO)CCOCC4)CC3)nc2)cc1
(B) CCCCOc1ccc(N2CCN(S(=O)(=O)C3(C(=O)NO)CCN(c4ccc(C)nn4)CC3)CC2)cc1
Request: Short answer wanted: higher pKi, A or B ? // output: label of the selected item
Response: B
